Exercise: for every item that follows, state its recorded HDAC6 selectivity (fold).
- targetEntity: human recombinant HDAC6 (Homo sapiens)
- Construct: purchased Calbiochem Inc. 382180
- experimentDescription: HDAC6 enzyme activity inhibition (HDAC Fluorimetric Drug Discovery Kit)
- Format: biochemical
- setupConditions: HDAC6 over HDAC1
I'd appreciate it if you wrote the number followed by its unit.

Please review the entries below; each comes with its answer.
Fc1cc(-c2nnc(C(F)F)o2)ccc1Cn1cc(-c2ccc3c(c2)CN(C2CCC2)C3)nn1; 986 fold
FC(F)c1nnc(-c2ccc(Cn3cc(-c4ccnc5[nH]ccc45)nn3)cc2)o1; 4310 fold
CCN1CC(c2cccc(-c3cn(Cc4ccc(-c5nnc(C(F)F)o5)cc4F)nn3)c2)C1; 2262 fold

// below: HDAC6 selectivity (fold) requested for another compound
The recorded HDAC6 selectivity (fold) for entry CC(C)N1CCN(c2cc(-c3cn(Cc4ccc(-c5nnc(C(F)F)o5)cn4)nn3)ccn2)CC1 equals 3246 fold

====

- targetEntity: human recombinant HDAC6 (Homo sapiens, UniProt Q9UBN7)
- Construct: purchased Calbiochem Inc. 382180
- experimentDescription: HDAC6 enzyme activity inhibition (HDAC Fluorimetric Drug Discovery Kit)
- Type: biochemical
- setupConditions: HDAC1 IC50 / HDAC6 IC50
Entry flag: yes if HDAC6 selectivity (fold) reaches 900 fold; no if it does not.

Below are worked cases with known answers.
Fc1cc(-c2nnc(C(F)F)o2)ccc1Cn1cc(-c2ccc(CN3CC(F)C3)cc2)nn1; yes
CCn1ccc2ccc(-c3cn(Cc4ccc(-c5nnc(C(F)F)o5)cn4)nn3)cc21; yes
Fc1cc(-c2nnc(C(F)F)o2)ccc1Cn1cc(-c2cccc(N3CCN(C4CCC4)CC3)c2)nn1; yes
FC(F)c1nnc(-c2ccc(Cn3cc(-c4cccc(CN5CCOCC5)c4)nn3)cc2)o1; no
CN(C)C(C)(C)C(=O)Nc1cccc(-c2cn(Cc3ccc(-c4nnc(C(F)F)o4)cc3F)nn2)c1; yes

Query string: Textbook exercise: given the entry O=C(Nc1cccc(-c2cn(Cc3ccc(-c4nnc(C(F)F)o4)cc3F)nn2)c1)C(F)(F)F , state whether its HDAC6 selectivity (fold) is greater than or equal to 900 fold.
Result string: yes

Query string: Textbook exercise: given the entry O=c1ccc(-c2cn(Cc3ccc(-c4nnc(C(F)F)o4)cn3)nn2)c[nH]1 , state whether its HDAC6 selectivity (fold) is greater than or equal to 900 fold.
Result string: yes

====

Exercise: for every item that follows, state its recorded IC50.
- targetEntity: human recombinant HDAC6 (Homo sapiens)
- Construct: purchased Calbiochem Inc. 382180
- experimentDescription: HDAC6 enzyme activity inhibition (HDAC Fluorimetric Drug Discovery Kit)
- Format: biochemical
- setupConditions: human recombinant HDAC6; IC50 calculated with GraphPad Prism
- Method: An experiment was conducted to identify the selectivity of the compound represented by formula I of the present invention to HDAC6 through an experiment on HDAC1 and HDAC6 enzyme activity inhibition. […]
One number for each entry, in nM.

Please review the entries below; each comes with its answer.
FC(F)c1nnc(-c2ccc(Cn3cc(-c4ccc5c(c4)CCN(C4CCC4)C5)nn3)nc2)o1 [Compound 4054]; 45.7
FC(F)c1nnc(-c2ccc(Cn3cc(-c4cccc(CN5CC(F)(F)C5)c4)nn3)nc2)o1 [Compound 4400]; 30.7
O=C(O)c1cccc(-c2cn(Cc3ccc(-c4nnc(C(F)F)o4)cn3)nn2)c1 [Compound 3739]; 63.9

// below: IC50 requested for another compound
FC(F)c1nnc(-c2ccc(Cn3cc(-c4ccccn4)nn3)nc2)o1 [Compound 3881] on human recombinant HDAC6 (Homo sapiens) gives IC50 = 34

====

- targetEntity: human recombinant HDAC6 (Homo sapiens, UniProt Q9UBN7)
- Construct: purchased Calbiochem Inc. 382180
- Sequence (Q9UBN7 1-1215): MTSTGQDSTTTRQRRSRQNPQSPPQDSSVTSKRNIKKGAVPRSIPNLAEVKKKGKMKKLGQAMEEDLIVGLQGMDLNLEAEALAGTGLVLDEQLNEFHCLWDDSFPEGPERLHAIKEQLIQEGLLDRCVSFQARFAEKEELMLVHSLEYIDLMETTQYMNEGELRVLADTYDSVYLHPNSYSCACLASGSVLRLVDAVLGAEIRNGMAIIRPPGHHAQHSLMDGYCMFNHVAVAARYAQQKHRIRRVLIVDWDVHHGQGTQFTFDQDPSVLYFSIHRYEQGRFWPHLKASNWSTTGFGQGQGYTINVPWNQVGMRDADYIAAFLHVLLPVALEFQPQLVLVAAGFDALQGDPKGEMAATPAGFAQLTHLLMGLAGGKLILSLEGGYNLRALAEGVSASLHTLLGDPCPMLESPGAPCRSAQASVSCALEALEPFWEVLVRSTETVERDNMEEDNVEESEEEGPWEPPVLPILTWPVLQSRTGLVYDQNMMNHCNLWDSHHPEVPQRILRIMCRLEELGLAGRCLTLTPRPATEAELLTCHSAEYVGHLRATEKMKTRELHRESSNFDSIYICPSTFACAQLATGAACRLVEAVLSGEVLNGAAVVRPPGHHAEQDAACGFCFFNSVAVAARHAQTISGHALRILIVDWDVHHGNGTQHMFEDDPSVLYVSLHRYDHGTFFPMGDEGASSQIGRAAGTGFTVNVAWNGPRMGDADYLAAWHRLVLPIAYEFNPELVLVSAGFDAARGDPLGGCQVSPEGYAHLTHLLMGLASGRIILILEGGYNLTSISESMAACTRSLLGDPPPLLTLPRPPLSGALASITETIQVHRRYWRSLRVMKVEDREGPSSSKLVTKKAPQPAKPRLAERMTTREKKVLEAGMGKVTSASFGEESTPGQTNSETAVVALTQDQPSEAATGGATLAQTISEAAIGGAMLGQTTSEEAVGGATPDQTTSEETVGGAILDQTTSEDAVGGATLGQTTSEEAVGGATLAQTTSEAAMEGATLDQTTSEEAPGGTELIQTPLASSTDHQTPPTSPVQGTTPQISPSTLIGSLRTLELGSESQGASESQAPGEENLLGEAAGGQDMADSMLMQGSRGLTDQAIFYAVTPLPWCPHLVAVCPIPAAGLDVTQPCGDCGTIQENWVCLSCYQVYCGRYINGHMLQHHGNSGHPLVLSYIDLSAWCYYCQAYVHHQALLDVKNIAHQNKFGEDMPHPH
- experimentDescription: HDAC6 enzyme activity inhibition (HDAC Fluorimetric Drug Discovery Kit)
- Format: biochemical
- setupConditions: human recombinant HDAC6, same protocol as HDAC1
attributeMeasured: pIC50
Give bare numbers, as −log10 of the molar value.

Please review the entries below; each comes with its answer.
CN1CCN(c2ccc(-c3cn(Cc4ccc(-c5nnc(C(F)F)o5)cc4F)nn3)cn2)CC1; 7.10
C[C@@H]1CN(c2cccc(-c3cn(Cc4ncc(-c5nnc(C(F)F)o5)cc4F)nn3)c2)C[C@H](C)N1C; 7.19
FC(F)c1nnc(-c2ccc(Cn3cc(-c4cccc5c4CN(C4CCC4)C5)nn3)cc2)o1; 6.82

// below: pIC50 requested for another molecule
The recorded pIC50 for entry CN1CCN(c2cccc(-c3cn(Cc4ccc(-c5nnc(C(F)F)o5)cn4)nn3)c2F)CC1 equals 7.86

====

- targetEntity: human recombinant HDAC6 (Homo sapiens, UniProt Q9UBN7)
- Construct: purchased Calbiochem Inc. 382180
- experimentDescription: HDAC6 enzyme activity inhibition (HDAC Fluorimetric Drug Discovery Kit)
- Format: biochemical
- setupConditions: HDAC6 over HDAC1
attributeMeasured: HDAC6 selectivity (fold)
One number for each entry, in fold.

Please review the entries below; each comes with its answer.
CN1Cc2cccc(-c3cn(Cc4ccc(-c5nnc(C(F)F)o5)cc4F)nn3)c2C1; 529
CC(C)N1CCN(c2cccc(-c3cn(Cc4ccc(-c5nnc(C(F)F)o5)cc4F)nn3)c2F)CC1; 1923
Fc1cc(-c2nnc(C(F)F)o2)ccc1Cn1cc(-c2ccc(CN3CC[C@@H](F)C3)cc2)nn1; 2512

CN1Cc2cccc(-c3cn(Cc4ccc(-c5nnc(C(F)F)o5)cc4)nn3)c2C1 on human recombinant HDAC6 (Homo sapiens, UniProt Q9UBN7) gives HDAC6 selectivity (fold) = 313

====

- targetEntity: human recombinant HDAC6 (Homo sapiens, UniProt Q9UBN7)
- Construct: purchased Calbiochem Inc. 382180
- Sequence (Q9UBN7 1-1215): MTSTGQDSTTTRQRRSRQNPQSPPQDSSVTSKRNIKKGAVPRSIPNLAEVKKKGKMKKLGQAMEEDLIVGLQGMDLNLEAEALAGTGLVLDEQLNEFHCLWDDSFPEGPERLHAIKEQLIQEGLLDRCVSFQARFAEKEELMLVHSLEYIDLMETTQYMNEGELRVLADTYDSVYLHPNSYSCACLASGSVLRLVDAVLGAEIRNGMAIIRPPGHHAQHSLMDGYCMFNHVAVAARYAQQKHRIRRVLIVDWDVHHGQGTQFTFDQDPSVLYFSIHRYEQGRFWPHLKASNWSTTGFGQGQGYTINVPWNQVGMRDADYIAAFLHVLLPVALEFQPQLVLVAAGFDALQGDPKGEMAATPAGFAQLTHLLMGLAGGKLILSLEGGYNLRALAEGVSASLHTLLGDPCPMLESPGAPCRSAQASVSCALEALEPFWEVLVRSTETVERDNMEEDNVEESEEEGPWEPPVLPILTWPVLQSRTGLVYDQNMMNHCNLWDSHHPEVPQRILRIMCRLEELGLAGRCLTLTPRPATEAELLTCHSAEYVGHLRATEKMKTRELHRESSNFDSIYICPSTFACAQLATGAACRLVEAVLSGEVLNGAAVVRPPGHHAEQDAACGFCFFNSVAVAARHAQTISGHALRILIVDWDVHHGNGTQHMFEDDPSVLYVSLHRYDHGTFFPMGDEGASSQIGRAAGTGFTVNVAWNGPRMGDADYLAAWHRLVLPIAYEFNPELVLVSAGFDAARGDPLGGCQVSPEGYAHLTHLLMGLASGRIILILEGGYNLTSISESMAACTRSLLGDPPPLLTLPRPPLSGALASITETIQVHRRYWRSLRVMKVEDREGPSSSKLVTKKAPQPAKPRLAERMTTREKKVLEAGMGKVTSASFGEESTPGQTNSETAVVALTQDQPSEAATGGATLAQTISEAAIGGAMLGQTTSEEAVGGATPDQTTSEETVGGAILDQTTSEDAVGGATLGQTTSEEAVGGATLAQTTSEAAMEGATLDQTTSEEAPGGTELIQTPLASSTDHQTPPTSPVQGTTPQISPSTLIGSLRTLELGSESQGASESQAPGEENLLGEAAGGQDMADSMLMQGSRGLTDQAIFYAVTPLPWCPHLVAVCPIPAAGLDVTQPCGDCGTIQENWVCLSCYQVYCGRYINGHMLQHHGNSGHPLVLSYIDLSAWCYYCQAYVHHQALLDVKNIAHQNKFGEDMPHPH
- experimentDescription: HDAC6 enzyme activity inhibition (HDAC Fluorimetric Drug Discovery Kit)
- Assay type: biochemical
- setupConditions: HDAC6 over HDAC1
Exercise: for every item that follows, state its recorded HDAC6 selectivity (fold).
Numbers only, in fold.

Fc1cc(-c2nnc(C(F)F)o2)ccc1Cn1cc(-c2ccc(C3CN(C4CCC4)C3)cc2)nn1; 1043
CC(C)N1CCN(c2cccc(-c3cn(Cc4ncc(-c5nnc(C(F)F)o5)cc4F)nn3)c2)CC1; 782
Fc1cc(-c2nnc(C(F)F)o2)ccc1Cn1cc(-c2ccc(CN3CCC3)nc2)nn1; 980

Count: 4. Required value per item: HDAC6 selectivity (fold).
1. CN(C)Cc1ccc(-c2cn(Cc3ncc(-c4nnc(C(F)F)o4)cc3F)nn2)cc1Cl
2. CN1CCN(Cc2ccc(-c3cn(Cc4ccc(-c5nnc(C(F)F)o5)cn4)nn3)cc2)CC1
3. Fc1cc(-c2nnc(C(F)F)o2)cnc1Cn1cc(-c2cccs2)nn1
4. Fc1cc(-c2nnc(C(F)F)o2)ccc1Cn1cc(-c2cccc(N3CCN(C4COC4)CC3)n2)nn1

Result string:
[510, 2083, 884, 1377]

The recorded HDAC6 selectivity (fold) for entry FC(F)c1nnc(-c2ccc(Cn3cc(-c4ccc(CNC5COC5)cc4)nn3)nc2)o1 equals 1256
